Biological target: SMARCA2 (Homo sapiens, UniProt P51531)
Sequence (P51531 whole entry): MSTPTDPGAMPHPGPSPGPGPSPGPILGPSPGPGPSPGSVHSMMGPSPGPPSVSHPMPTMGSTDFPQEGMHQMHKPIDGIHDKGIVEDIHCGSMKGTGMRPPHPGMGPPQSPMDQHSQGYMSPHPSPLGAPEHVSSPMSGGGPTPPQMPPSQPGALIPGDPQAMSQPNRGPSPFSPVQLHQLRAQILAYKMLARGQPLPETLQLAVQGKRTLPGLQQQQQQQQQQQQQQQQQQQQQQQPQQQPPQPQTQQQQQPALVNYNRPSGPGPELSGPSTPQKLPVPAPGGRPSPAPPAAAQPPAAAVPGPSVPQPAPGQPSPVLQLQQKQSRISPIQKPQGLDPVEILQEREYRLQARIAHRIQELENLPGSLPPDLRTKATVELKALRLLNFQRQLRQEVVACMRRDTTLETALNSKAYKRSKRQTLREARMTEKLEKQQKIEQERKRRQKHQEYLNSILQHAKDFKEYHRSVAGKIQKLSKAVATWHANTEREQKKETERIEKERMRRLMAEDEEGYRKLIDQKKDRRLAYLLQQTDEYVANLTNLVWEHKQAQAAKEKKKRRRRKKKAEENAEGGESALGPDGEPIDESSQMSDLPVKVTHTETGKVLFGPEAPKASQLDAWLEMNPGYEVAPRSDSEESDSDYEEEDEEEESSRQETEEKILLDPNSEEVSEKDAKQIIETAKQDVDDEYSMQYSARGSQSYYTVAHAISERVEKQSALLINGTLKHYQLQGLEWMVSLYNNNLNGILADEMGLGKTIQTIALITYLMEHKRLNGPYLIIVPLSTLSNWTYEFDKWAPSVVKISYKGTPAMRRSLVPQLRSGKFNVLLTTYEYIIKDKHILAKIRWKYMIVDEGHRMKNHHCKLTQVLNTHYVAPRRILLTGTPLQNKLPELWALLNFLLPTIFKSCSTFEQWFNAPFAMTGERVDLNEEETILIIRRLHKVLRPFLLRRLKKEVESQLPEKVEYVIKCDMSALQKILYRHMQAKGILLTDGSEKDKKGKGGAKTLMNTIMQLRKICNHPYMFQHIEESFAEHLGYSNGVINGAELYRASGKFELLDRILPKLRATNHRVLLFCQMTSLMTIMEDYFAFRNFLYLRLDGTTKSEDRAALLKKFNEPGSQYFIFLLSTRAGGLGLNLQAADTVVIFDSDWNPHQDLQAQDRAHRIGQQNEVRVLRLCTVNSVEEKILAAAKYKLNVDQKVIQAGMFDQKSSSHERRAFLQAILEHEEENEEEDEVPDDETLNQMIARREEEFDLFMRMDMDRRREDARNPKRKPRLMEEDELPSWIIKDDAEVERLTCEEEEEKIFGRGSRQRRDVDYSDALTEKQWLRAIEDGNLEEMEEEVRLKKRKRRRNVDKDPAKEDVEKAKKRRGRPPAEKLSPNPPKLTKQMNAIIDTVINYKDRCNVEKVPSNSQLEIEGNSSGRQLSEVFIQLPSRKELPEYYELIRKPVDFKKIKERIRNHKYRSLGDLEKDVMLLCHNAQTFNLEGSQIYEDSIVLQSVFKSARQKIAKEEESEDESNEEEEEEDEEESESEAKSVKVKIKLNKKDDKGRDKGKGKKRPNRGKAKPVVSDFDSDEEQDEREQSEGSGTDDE
Test: MSD SMARCA2 degradation in A549 cell line
Assay type: cell-based
Parameters: endogenous in cells
Details: A549, A549 cells, 24 h
Assign Dmax to each entry below.

Which Dmax value is on record for "Cc1ncsc1-c1ccc(CNC(=O)[C@@H]2C[C@@H](O)CN2C(=O)[C@H](c2cc(OCCCN3CCC(c4cnc(N5C6CCC5CN(c5cc(-c7ccccc7O)nnc5N)C6)nc4)CC3)no2)C(C)C)cc1" ?
> 90%

Which Dmax value is on record for Cc1ncsc1-c1ccc(CNC(=O)[C@@H]2C[C@@H](O)CN2C(=O)[C@@H](NC(=O)[C@H]2CC3(C2)C[C@H](N2CC4(CN(c5cnc(N6C7CCC6CN(c6cc(-c8ccccc8O)nnc6N)C7)nc5)C4)C2)C3)C(C)(C)C)cc1 (some centres unmarked) ?
70 to 90%

Which Dmax value is on record for Cc1ncsc1-c1ccc(CNC(=O)[C@@H]2C[C@@H](O)CN2C(=O)C(c2cc(OCCCOCCCN3CCC(Cn4cc(-c5cc(-c6ccccc6O)nnc5N)cn4)CC3)no2)C(C)C)cc1 (some centres unmarked) ?
> 90%

Which Dmax value is on record for Cc1ncsc1-c1ccc(CNC(=O)[C@@H]2C[C@@H](O)CN2C(=O)[C@@H](NC(=O)[C@H]2CC3(CC[C@H](N4CCC(c5cnc(N6C7CCC6CN(c6cc(-c8ccccc8O)nnc6N)C7)nc5)CC4)CC3)C2)C(C)(C)C)cc1 (some centres unmarked) ?
> 90%

Which Dmax value is on record for Cc1ncsc1-c1ccc([C@H](C)NC(=O)[C@@H]2C[C@@H](O)CN2C(=O)[C@@H](NC(=O)[C@H]2CC3(C2)C[C@H](N2CCC(c4ccc(N5C6CCC5CN(c5cc(-c7ccccc7O)nnc5N)C6)cc4)CC2)C3)C(C)(C)C)cn1 (single isomer, unassigned) ?
< 50%

Which Dmax value is on record for Cc1ncsc1-c1ccc(CNC(=O)[C@@H]2C[C@@H](O)CN2C(=O)[C@@H](NC(=O)C2CC3(C2)CC(N2CCC(COc4ccc(N5C6CCC5CN(c5cc(-c7ccccc7O)nnc5N)C6)cn4)CC2)C3)C(C)(C)C)cc1 (some centres unmarked) ?
50 to 70%

Which Dmax value is on record for "Cc1ncsc1-c1ccc(CNC(=O)[C@@H]2C[C@@H](O)CN2C(=O)[C@@H](NC(=O)N2CCC(N3CCC(c4cnc(N5C6CCC5CN(c5cc(-c7ccccc7O)nnc5N)C6)nc4)CC3)CC2)C(C)(C)C)cc1" ?
< 50%

Which Dmax value is on record for Cc1ncsc1-c1ccc([C@H](C)NC(=O)[C@@H]2C[C@@H](O)CN2C(=O)[C@@H](NC(=O)[C@H]2CCC3(CC2)C[C@H](N2CCC(c4cnc(N5C6CCC5CN(c5cc(-c7ccccc7O)nnc5N)C6)nc4)CC2)C3)C(C)(C)C)cc1 (stereo in doubt) ?
> 90%

Which Dmax value is on record for Cc1ncsc1-c1ccc(CNC(=O)[C@@H]2C[C@@H](O)CN2C(=O)[C@@H](NC(=O)CN2CC3(C2)CN(C2CCC(c4cnc(N5C6CCC5CN(c5cc(-c7ccccc7O)nnc5N)C6)nc4)CC2)C3)C(C)(C)C)cc1 (some centres unmarked) ?
> 90%

Which Dmax value is on record for "Cc1ncsc1-c1ccc(CNC(=O)[C@@H]2C[C@@H](O)CN2C(=O)[C@@H](NC(=O)CN(C)Cc2cnc(N3C4CCC3CN(c3cc(-c5ccccc5O)nnc3N)C4)nc2)C(C)(C)C)cc1" ?
> 90%

Which Dmax value is on record for Cc1ncsc1-c1ccc(CNC(=O)[C@@H]2C[C@@H](O)CN2C(=O)C(c2cc(O[C@H]3CC[C@@H](N4CCC(c5cnc(N6C7CCC6CN(c6cc(-c8ccccc8O)nnc6N)C7)nc5)CC4)CC3)no2)C(C)C)cc1 (some centres unmarked) ?
> 90%

Which Dmax value is on record for Cc1n[nH]c(C)c1-c1ccc(CNC(=O)[C@@H]2C[C@@H](O)CN2C(=O)[C@@H](NC(=O)[C@H]2CC3(C2)C[C@H](N2CCC(c4cnc(N5C6CCC5CN(c5cc(-c7ccccc7O)nnc5N)C6)nc4)CC2)C3)C(C)(C)C)cc1 (some centres unmarked) ?
< 50%

Which Dmax value is on record for Cc1ncsc1-c1ccc(CNC(=O)[C@@H]2C[C@@H](O)CN2C(=O)[C@@H](NC(=O)C2CC3(C2)CN(C2CCC(c4cnc(N5C6CCC5CN(c5cc(-c7ccccc7O)nnc5N)C6)nc4)CC2)C3)C(C)(C)C)cc1 (some centres unmarked) ?
70 to 90%

Which Dmax value is on record for "Cc1ncsc1-c1ccc(CNC(=O)[C@@H]2C[C@@H](O)CN2C(=O)[C@@H](c2cc(OCCCCN3CCC(c4cnc(N5C6CCC5CN(c5cc(-c7ccccc7O)nnc5N)C6)nc4)CC3)no2)C(C)C)cc1" ?
> 90%
